B1: MLL5 (parent)
chain: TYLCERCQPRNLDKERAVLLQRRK

variants of: B1; test: protein stability index of a GFP-peptide fusion (GPS, HEK-293T) (PSI 1-6); higher = more stable; conditions: c terminus: a fixed tail appended;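 note: lentivirally expressed fusions sorted by FACS into six bins by GFP to DsRed ratio, PSI derived from sequencing read proportions per bin multiplied by bin number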
Think of 2 as a floor: if protein stability index stands on it or above, it is rule met; beneath it, rule not met.

>  <sequenceVariant>
E15H

>  <label>
rule met

$$$$
>  <sequenceVariant>
R10T

>  <label>
rule met

$$$$
>  <sequenceVariant>
R6Q

>  <label>
rule met

$$$$
>  <sequenceVariant>
D13A

>  <label>
rule met

$$$$
>  <sequenceVariant>
C4N

>  <label>
rule met

$$$$
>  <sequenceVariant>
V18A

>  <label>
rule not met

$$$$
>  <sequenceVariant>
R6M

>  <label>
rule not met

$$$$
>  <sequenceVariant>
R6H

>  <label>
rule not met

$$$$
>  <sequenceVariant>
R16L

>  <label>
rule met

$$$$
>  <sequenceVariant>
T1G

>  <label>
rule not met

$$$$
>  <sequenceVariant>
Q21H

>  <label>
rule met

$$$$
>  <sequenceVariant>
L3Q

>  <label>
rule met

$$$$
>  <sequenceVariant>
C7E

>  <label>
rule met

$$$$
>  <sequenceVariant>
V18C

>  <label>
rule met

$$$$
>  <sequenceVariant>
R16E

>  <label>
rule not met

$$$$
>  <sequenceVariant>
C7S

>  <label>
rule met

$$$$
>  <sequenceVariant>
L3E

>  <label>
rule met

$$$$
>  <sequenceVariant>
L3D

>  <label>
rule met

$$$$
>  <sequenceVariant>
Y2P

>  <label>
rule met

$$$$
>  <sequenceVariant>
D13K

>  <label>
rule met

$$$$
>  <sequenceVariant>
A17Q

>  <label>
rule not met

$$$$
>  <sequenceVariant>
L3P

>  <label>
rule met

$$$$
>  <sequenceVariant>
L3Y

>  <label>
rule met

$$$$
>  <sequenceVariant>
A17N

>  <label>
rule met

$$$$
>  <sequenceVariant>
L19Y

>  <label>
rule met

$$$$
>  <sequenceVariant>
L20W

>  <label>
rule met

$$$$
>  <sequenceVariant>
D13P

>  <label>
rule not met

$$$$
>  <sequenceVariant>
Y2N

>  <label>
rule met

$$$$
>  <sequenceVariant>
C4Q

>  <label>
rule met

$$$$
>  <sequenceVariant>
N11H

>  <label>
rule met

$$$$
>  <sequenceVariant>
L19P

>  <label>
rule not met

$$$$
>  <sequenceVariant>
R16F

>  <label>
rule met

$$$$
>  <sequenceVariant>
L12I

>  <label>
rule met

$$$$
>  <sequenceVariant>
C4I

>  <label>
rule not met

$$$$
>  <sequenceVariant>
L12K

>  <label>
rule met

$$$$
>  <sequenceVariant>
T1D

>  <label>
rule met

$$$$
>  <sequenceVariant>
R23C

>  <label>
rule met

$$$$
>  <sequenceVariant>
L12A

>  <label>
rule met

$$$$
>  <sequenceVariant>
N11C

>  <label>
rule met

$$$$
>  <sequenceVariant>
R23I

>  <label>
rule met

$$$$
>  <sequenceVariant>
Q21E

>  <label>
rule met

$$$$
>  <sequenceVariant>
R16V

>  <label>
rule met

$$$$
>  <sequenceVariant>
E15D

>  <label>
rule met

$$$$
>  <sequenceVariant>
Q8S

>  <label>
rule not met

$$$$
>  <sequenceVariant>
V18P

>  <label>
rule not met

$$$$
